system: MT4; assay: Selectivity index of CD50 to ED50 of MT-4 cells; format: functional
Entries and their measured Selectivity index follow.

Worked set:
Form: item O=c1ccn(C2CCC(CO)O2)c(=O)[nH]1 (stereo unspecified) ; test system MT4; Selectivity index: >3

Form: item `O=c1[nH]c(=O)n([C@H]2C=C[C@@H](CO)O2)cc1Cl` ; test system MT4; Selectivity index: <2.2

Form: item `O=c1ccn([C@H]2C=C[C@@H](CO)O2)c(=O)[nH]1` ; test system MT4; Selectivity index: <2

Form: item O=c1[nH]c(=O)n(C2CCC(CO)O2)cc1Cl (stereo unspecified) ; test system MT4; Selectivity index: >6

Form: item Nc1nc(=O)n(C2C[C@@H](F)[C@@H](CO)O2)cc1Cl (stereo partly specified) ; test system MT4; Selectivity index: >38

***
Form: item Cc1cn(/C=C/C(O)C(O)CO)c(=O)[nH]c1=O (stereo unspecified) ; test system MT4; Selectivity index: >1
